The measured values listed here are drawn from patent US20210052529A1.

Test: Pharmacokinetic study in rats
Type: in vivo
Details: rat, in vivo, 1 mg/kg, IV
readout.label: Cmax (ng/mL)
Write the number in ng/mL without appending the unit.

Give me measured Cmax, please, for this compound: "O=C(O)c1ccc(NC(=O)[C@@H]2CCC[C@H](C(=O)Nc3ccc(C(=O)O)cc3)C2)cc1"
3980

---

Experiment: Compound concentration in the CSF of rats
Assay type: in vivo
Conditions: rat, CSF, iv, 2.0 h, individual animals, read-out: CSF Concentration
readout.label: concentration at 2 h (ng/mL)
Hi! Could you send only the number? It should be in ng/mL, unit omitted.

Supply concentration at 2 h value. Item: O=C(O)c1ccc(NC(=O)[C@@H]2CCC[C@H](C(=O)Nc3ccc(C(=O)O)cc3)C2)cc1 [B1]
17
